- Assay system: Human HER3, endogenous, on human cancer cell lines (human, UniProt P21860 20-1342)
- Experimental protocol: cell-based or functional assay
Recorded endpoint: SK-Br-3 pHER3 % inhibition (%)
Give bare numbers, in %.

Before answering, review these 4 worked examples.
Binder: MOR09823 (antibody, human IgG1, kappa, V domains shown, tested as IgG) VH: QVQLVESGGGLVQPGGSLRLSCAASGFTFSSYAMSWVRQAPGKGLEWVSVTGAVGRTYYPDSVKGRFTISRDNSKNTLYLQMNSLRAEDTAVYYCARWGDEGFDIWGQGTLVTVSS VL: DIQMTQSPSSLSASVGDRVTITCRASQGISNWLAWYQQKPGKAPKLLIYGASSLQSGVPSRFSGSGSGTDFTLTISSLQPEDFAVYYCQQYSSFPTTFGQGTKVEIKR
Recorded endpoint: SK-Br-3 pHER3 % inhibition
Test result: 59

Binder: MOR12610 (antibody, human IgG1, kappa, V domains shown, tested as IgG) VH: QVQLVESGGGLVQPGGSLRLSCAASGFTFSSYAMSWVRQAPGKGLEWVSGTGPYGGTYYPDSVKGRFTISRDNSKNTLYLQMNSLRAEDTAVYYCARWGDEGFDIWGQGTLVTVSS VL: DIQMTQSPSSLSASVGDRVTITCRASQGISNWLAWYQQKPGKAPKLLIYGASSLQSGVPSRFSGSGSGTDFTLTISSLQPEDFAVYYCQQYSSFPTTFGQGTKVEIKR
Recorded endpoint: SK-Br-3 pHER3 % inhibition
Test result: 75

Binder: MOR12609 (antibody, human IgG1, kappa, V domains shown, tested as IgG) VH: QVQLVESGGGLVQPGGSLRLSCAASGFTFSSYAMSWVRQAPGKGLEWVSVINGLGYTTFYADSVKGRFTISRDNSKNTLYLQMNSLRAEDTAVYYCARWGDEGFDIWGQGTLVTVSS VL: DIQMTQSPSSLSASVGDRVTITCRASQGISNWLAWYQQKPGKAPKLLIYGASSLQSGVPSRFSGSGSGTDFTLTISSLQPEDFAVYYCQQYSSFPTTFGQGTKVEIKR
Recorded endpoint: SK-Br-3 pHER3 % inhibition
Test result: 71

Binder: MOR09825 (antibody, human IgG1, kappa, V domains shown, tested as IgG) VH: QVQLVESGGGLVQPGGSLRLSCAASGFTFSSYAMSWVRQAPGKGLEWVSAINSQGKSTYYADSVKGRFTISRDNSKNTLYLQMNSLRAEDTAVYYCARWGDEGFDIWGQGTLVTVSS VL: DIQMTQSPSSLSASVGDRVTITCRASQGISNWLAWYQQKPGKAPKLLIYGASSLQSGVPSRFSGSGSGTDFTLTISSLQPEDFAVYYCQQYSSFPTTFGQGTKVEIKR
Recorded endpoint: SK-Br-3 pHER3 % inhibition
Test result: 66

Pending binder:
Look up SK-Br-3 pHER3 % inhibition: MOR09974 (antibody, human IgG1, kappa, V domains shown, tested as IgG) VH: QVQLVESGGGLVQPGGSLRLSCAASGFTFSSYAMSWVRQAPGKGLEWVSVINPSGNFTNYADSVKGRFTISRDNSKNTLYLQMNSLRAEDTAVYYCARWGDEGFDIWGQGTLVTVSS VL: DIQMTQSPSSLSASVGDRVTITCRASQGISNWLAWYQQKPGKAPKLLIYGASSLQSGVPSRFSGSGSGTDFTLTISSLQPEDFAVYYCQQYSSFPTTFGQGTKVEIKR
67
